A collection of compounds and their measured EC50
system: CEM cells HIV-1 protection, formazan growth assay; assay: NCI AIDS Antiviral Assay

| COMPOUND | EC50 |
| --- | --- |
| Cc1cn(C(C)OCCO[Si](C)(C)C(C)(C)C)c(=O)[nH]c1=O (stereo unspecified) | > 200 µM |
| CC[C@@]1(OC(=O)C(N)CCCCN)C(=O)OCc2c1cc1n(c2=O)Cc2cc3ccccc3nc2-1 (stereo partly specified) | > 10 µM |
| Cc1ccc2c(c1)[nH]c(=S)n2/C=C1\C(=O)Oc2ccccc2C1=O | > 200 µM |
| O=c1oc(C(C(F)(F)F)C(F)(F)F)nc2ccccc12 | > 200 µM |
| NC(=O)C1C2CC3C(NC(=O)C31)C2O (stereo unspecified) | > 200 µM |

Lab note: need EC50 with CEM cells HIV-1 protection, formazan growth assay for entry `CC[N+](C)(C)CC(O)(O)C(F)F` , please look it up.
> 200 µM

What value of EC50 on CEM cells HIV-1 protection, formazan growth assay does CC1(C)C(C(=O)O)C1C(=O)O (stereo unspecified) have?
> 200 µM

Query the reported EC50 for CEM cells HIV-1 protection, formazan growth assay; item: `Cc1cc(S(=O)(=O)Nc2n[nH]c(=O)n2-c2ccccc2)c(S)cc1Cl`
155 µM

For CEM cells HIV-1 protection, formazan growth assay, provide EC50 of `CC(C)(C)[Si](C)(C)OC[C@H]1O[C@@H](n2ccc(=O)[nH]c2=O)[C@H](O[Si](C)(C)C(C)(C)C)[C@]1(O)[C@H](N=[N+]=[N-])C(N)=O` please.
> 200 µM

Which measured EC50 belongs to `COc1ccc(C(=O)Nc2sc(SC)nc2C(N)=O)cc1` , tested on CEM cells HIV-1 protection, formazan growth assay?
> 200 µM

Field: EC50 (CEM cells HIV-1 protection, formazan growth assay). Entry: `C1CN(/N=N/N2CCOCC2)CCO1`
> 200 µM

Given the entry CN1CCc2ccccc2C(C(=O)c2ccc(Cl)cc2)C1=O (stereo unspecified) , what EC50 was observed with CEM cells HIV-1 protection, formazan growth assay?
> 83.2 µM

Lab request: please report EC50 under test system CEM cells HIV-1 protection, formazan growth assay for CCN1CCC(O)(c2ccc(OC)cc2)C(C(=O)c2ccc(OC)cc2)C1 (stereo unspecified)
> 550 µM

Entry COC(=O)C1C23CC(=O)CC1(c1ccc4c(c1)OCO4)C2NC3=O (stereo unspecified) , system CEM cells HIV-1 protection, formazan growth assay: what EC50 was measured?
> 398 µM

* * *

Attribute: EC50
test system: CEM cells HIV-1 protection, formazan growth assay; assay: NCI AIDS Antiviral Assay

Example results:
| COMPOUND | EC50 |
| --- | --- |
| OCC(O)C(O)C(O)c1nc2ccccc2s1 (centres undefined) | > 977 µM |
| CS(=O)(=O)N(N(CCCl)S(=O)(=O)c1ccccc1)S(C)(=O)=O | > 126 µM |
| CCOC(=O)C(=Cc1ccccc1OC)C(=O)OCC | > 129 µM |
| O=C(O)c1cc(I)cc(I)c1O | > 646 µM |
| CC(C)(C)C1COP(=O)(C(C)(C)C)OC1 (centres undefined) | > 537 µM |

Next item in the queue.
Quick check: EC50 on CEM cells HIV-1 protection, formazan growth assay, item CCOC(=O)C(C)NC(=O)N(C)C12CC3CC(CC(C3)C1)C2 (centres undefined) ?
> 200 µM

Reference for the values: PubChem BioAssay AID179
